# Test system: Felis catus
# Assay Name: In vivo inhibition of beta-1 adrenergic receptor in iv dosed cat assessed as inhibition of isoproterenol-induced trachycardia after 30 mins
# Format: functional
# Test Settings: 0.5 h
Quantity: ED50
I'd appreciate it if you wrote the number followed by its unit.

1. CCSCCCNCC(O)COc1ccccc1[N+](=O)[O-].O=C(O)C(=O)O (stereo unspecified) | 0.13 mg/kg

Assign ED50 to the following record: CC(CSc1ccccc1)NCC(O)COc1ccccc1Cl.O=C(O)C(=O)O (stereo unspecified)
0.058 mg/kg

State, in one line, measured ED50 of O=C(O)C(=O)O.OC(CNCCCSC1CCCCC1)COc1ccccc1 (stereo unspecified)
0.781 mg/kg

Identify ED50 associated with the molecule O=C(O)C(=O)O.[O-][S+](CCCNCC(O)COc1ccccc1)C1CCCCC1 (stereo unspecified)
0.162 mg/kg

* * *

# System: Felis catus
# Assay Name: In vivo inhibition of beta-1 adrenergic receptor in iv dosed cat assessed as inhibition of isoproterenol-induced trachycardia after 30 mins
# Format: functional
# Test Settings: 0.5 h
Quantity: ED50 (mg/kg)
Please state the figure in mg/kg; there is no need to write the unit.

Some solved entries appear below for comparison.
1) Cc1ccc(SCCNCC(O)COc2ccccc2)cc1 (stereo not drawn) | 0.289
2) CC(NCC(O)COc1ccccc1)C(C)Sc1ccccc1.O=C(O)C(=O)O (stereo not drawn) | 0.195

# lookup: Felis catus ED50, key = C=CCc1ccccc1OCC(O)CNCCCSCC.O=C(O)C(=O)O (stereo not drawn)
0.72

* * *

Attribute: log10 ED50
# Tested on: Felis catus
# Assay Name: In vivo inhibition of beta-1 adrenergic receptor in iv dosed cat assessed as inhibition of isoproterenol-induced trachycardia after 30 mins
# Assay type: functional
# Test Settings: 0.5 h
Values reflect log10 of reported ED50 (mg/kg).

Study these solved cases before continuing.
1. CCSCCCNCC(O)COc1ccccc1C#N.O=C(O)C(=O)O (centres undefined) | -0.87
2. CC(C)SCCCNCC(O)COc1ccccc1.O=C(O)C(=O)O (centres undefined) | -0.48
3. CC(CNCC(O)COc1ccccc1)Sc1ccccc1.O=C(O)C(=O)O (centres undefined) | -0.25
4. O=C(O)C(=O)O.O=[N+]([O-])c1ccccc1OCC(O)CNCCSC1CCCCC1 (centres undefined) | -0.37
5. Cl.OC(CNCCSC1CCCCC1)COc1ccccc1 (centres undefined) | -0.79
6. Cl.OC(CNCCCSc1ccccc1)COc1ccccc1 (centres undefined) | -0.38
7. CCSCCCNCC(O)COc1ccccc1OC.O=C(O)C(=O)O (centres undefined) | -0.55
8. CC(C)(CSc1ccccc1)NCC(O)COc1ccccc1.O=C(O)C(=O)O (centres undefined) | -1.19

Jot down log10 ED50 (Felis catus) of CCSCCCNCC(O)COc1ccccc1Cl (centres undefined) .
-0.57

Name the value of log10 ED50 reported for O=S(=O)(CCNCC(O)COc1ccccc1)c1ccccc1 (centres undefined) when tested on Felis catus.
0.12

Determine reported log10 ED50 for CC(CSc1ccccc1)NCC(O)COc1ccccc1.O=C(O)C(=O)O (centres undefined) ; test system: Felis catus.
-1.80

Provide measured log10 ED50 on Felis catus for [O-][S+](CCNCC(O)COc1ccccc1)c1ccccc1 (centres undefined) please.
-1.36

* * *

# Test system: Felis catus
# Assay Name: In vivo inhibition of beta-1 adrenergic receptor in iv dosed cat assessed as inhibition of isoproterenol-induced trachycardia after 30 mins
# Format: functional
# Test Settings: 0.5 h
Label True when ED50 is strictly below 0.2 mg/kg; otherwise label False.

1. Cc1ccc(SCCCNCC(O)COc2ccccc2)cc1.Cl (configuration not stated) | False

Strictly below 0.2 mg/kg: is that where ED50 of O=[N+]([O-])c1ccccc1OCC(O)CNCCSCc1ccccc1 (configuration not stated) sits?
False

* * *

# Tested on: Felis catus
# Assay Name: In vivo inhibition of beta-1 adrenergic receptor in iv dosed cat assessed as inhibition of isoproterenol-induced trachycardia after 30 mins
# Assay type: functional
# Test Settings: 0.5 h
Binary label based on ED50 with cut-off 0.3 mg/kg: below gives true, not below gives false.

1) OC(CNCCSc1ccccc1)COc1ccccc1 (configuration not stated) | true
2) O=C(O)C(=O)O.OC(CNCCSc1ccccc1)COc1ccccc1Cl (configuration not stated) | false
3) CC[S+]([O-])CCNCC(O)COc1ccccc1.O=C(O)C(=O)O (configuration not stated) | true
4) O=C(O)C(=O)O.O=[N+]([O-])c1ccccc1OCC(O)CNCCCS(=O)(=O)C1CCCCC1 (configuration not stated) | false

hey, is ED50 for CCSCCNCC(O)COc1ccccc1.Cl (configuration not stated) lower than 0.3 mg/kg or not?
false

Lab note: confirm whether the reported ED50 for this compound is below 0.3 mg/kg, equality not counting. compound: Cc1ccc([S+]([O-])CCNCC(O)COc2ccccc2)cc1 (configuration not stated)
true

* * *

# Tested on: Felis catus
# Assay Name: In vivo inhibition of beta-1 adrenergic receptor in iv dosed cat assessed as inhibition of isoproterenol-induced trachycardia after 30 mins
# Type: functional
# Test Settings: 0.5 h
ED50 strictly less than 0.2 mg/kg = y. Otherwise n.

Use the examples below as a reference point.
1) CCC(C)(C)CSCCCNCC(O)COc1ccccc1.O=C(O)C(=O)O (stereo not given) | y
2) CCSCCCNCC(O)COc1ccccc1.O=C(O)C(=O)O (stereo not given) | n
3) COc1ccccc1SCCNCC(O)COc1ccccc1.O=C(O)C(=O)O (stereo not given) | n
4) CC(C)(C[S+]([O-])c1ccccc1)NCC(O)COc1ccccc1.O=C(O)C(=O)O (stereo not given) | y

Let us examine a further case.
Does the reported ED50 of O=C(O)C(=O)O.[O-][S+](CCNCC(O)COc1ccccc1)Cc1ccccc1 (stereo not given) stay below 0.2 mg/kg?
y

* * *

# Tested on: Felis catus
# Assay Name: In vivo inhibition of beta-1 adrenergic receptor in iv dosed cat assessed as inhibition of isoproterenol-induced trachycardia after 30 mins
# Format: functional
# Test Settings: 0.5 h
Recorded ED50, one value per entry.
Answer with a number only, understood to be in mg/kg.

1. O=C(O)C(=O)O.OC(CNCCSCc1ccccc1)COc1ccccc1 (stereo unspecified) | 0.207
2. Cc1ccccc1OCC(O)CNCCSc1ccccc1 (stereo unspecified) | 1.55
3. Cc1ccccc1OCC(O)CNCC[S+]([O-])c1ccccc1.O=C(O)C(=O)O (stereo unspecified) | 0.799

Please supply the value of reported ED50 for the item CCSCCNCC(O)COc1ccccc1C#N.O=C(O)C(=O)O (stereo unspecified)
0.2

Give ED50 for [O-][S+](CCNCC(O)COc1ccccc1)c1ccc(Cl)cc1 (stereo unspecified)
0.08

Name the recorded ED50 of the compound listed here: CCSCCCNCC(O)COc1ccccc1Br.O=C(O)C(=O)O (stereo unspecified)
0.212
